system: Staphylococcus aureus; assay: Compound was evaluated for antibacterial activity against Staphylococcus aureus (MB2865) sensitive strain; format: functional
OBSERVED PROPERTY: MIC (µg/mL)

Example results:
INSERT INTO assay_data (structure_string, observed_property, quantitative_readout) VALUES
  ('CC[C@H]1OC(=O)[C@H](C)[C@@H](O[C@H]2C[C@@](C)(OC)[C@@H](O)[C@H](C)O2)[C@H](C)[C@@H](O[C@@H]2O[C@H](C)C[C@H](N(C)C)[C@H]2O)[C@](C)(O)C[C@@H](C)CN(C)[C@H](C)[C@@H](O)[C@]1(C)O', 'MIC', 0.5),
  ('CC[C@H]1OC(=O)[C@H](C)[C@@H](O[C@H]2C[C@@](C)(OC)[C@@H](O)[C@@H](C)O2)[C@H](C)[C@@H](O[C@@H]2O[C@H](C)C[C@@H](N(C)C)[C@H]2O)[C@](C)(OC)C[C@@H](C)CN(C)[C@H](C)[C@@H](O)[C@]1(C)O', 'MIC', 2),
  ('CC[C@H]1OC(=O)[C@H](C)[C@@H](O[C@H]2C[C@@](C)(OC)[C@@H](OC)[C@@H](C)O2)[C@H](C)[C@@H](O[C@@H]2O[C@H](C)C[C@@H](N(C)C)[C@H]2O)[C@](C)(O)C[C@@H](C)N(C)C[C@H](C)[C@@H](OC)[C@]1(C)OC', 'MIC', 32),
  ('CC[C@H]1OC(=O)[C@H](C)[C@@H](O[C@H]2C[C@@](C)(OC)[C@@H](O)[C@@H](C)O2)[C@H](C)[C@@H](O[C@@H]2O[C@H](C)C[C@@H](N(C)C)[C@H]2O)[C@](C)(OC)C[C@@H](C)N(C)C[C@H](C)[C@@H](O)[C@]1(C)O', 'MIC', 2),
  ('CC[C@H]1OC(=O)[C@H](C)[C@@H](O[C@H]2C[C@@](C)(OC)[C@H](O)[C@H](C)O2)[C@H](C)[C@@H](O[C@@H]2O[C@H](C)C[C@H](N(C)C)[C@H]2O)[C@](C)(O)C[C@@H](C)N(C)C[C@H](C)[C@@H](O)[C@]1(C)O', 'MIC', 0.3);

(a) CC[C@H]1OC(=O)[C@H](C)[C@@H](O[C@H]2C[C@@](C)(OC)[C@@H](OC)[C@@H](C)O2)[C@H](C)[C@@H](O[C@@H]2O[C@H](C)C[C@@H](N(C)C)[C@H]2O)[C@](C)(O)C[C@@H](C)N(C)C[C@H](C)[C@@H](O)[C@]1(C)O
(b) CC[C@H]1OC(=O)[C@H](C)[C@@H](O[C@H]2C[C@@](C)(OC)[C@@H](OC)[C@@H](C)O2)[C@H](C)[C@@H](O[C@@H]2O[C@H](C)C[C@@H](N(C)C)[C@H]2O)[C@](C)(OC)C[C@@H](C)N(C)C[C@H](C)[C@@H](OC)[C@]1(C)OC
Hi team, can someone confirm which has the larger MIC: a or b ? Thanks. Bench note: the answer is the label of the chosen record. b
(b: 32 µg/mL, a: 8 µg/mL)
